system: TNF-α; assay: TNF-α inhibition assay, LPS-induced PBMCs / CD14+ monocytes (Meso Scale); assay type: cell-based; conditions: 1 h pretreatment, 100 ng/mL LPS 18-24 h
Here the recorded inhibition at 1 µM is given for each entry.

Examples from the recorded data:
Compound | inhibition at 1 µM
Cn1ncc(-c2nc(N[C@H]3CC[C@H](NCC(=O)NCCOCCOCCOCCNCC(=O)NCc4cc5c(s4)C(=O)N(C4CCC(=O)NC4=O)C5)CC3)ncc2Cl)c1CC1CC1 (stereo partly drawn) | < 50%
Cn1ncc(-c2nc(N[C@H]3CC[C@H](NCCCCCCNC(=O)NCc4cc5c(s4)C(=O)N(C4CCC(=O)NC4=O)C5)CC3)ncc2F)c1CC1CC1 (stereo partly drawn) | < 50%
Cn1ncc(-c2ncnc(N[C@H]3CC[C@H](NCCCCCCCCNC(=O)NCc4cc5c(s4)C(=O)N(C4CCC(=O)NC4=O)C5)CC3)n2)c1CC1CC1 (stereo partly drawn) | < 50%
Cn1ncc(-c2nc(N[C@H]3CC[C@H](NCC(=O)NCCOCCOCCOCCNc4cccc5c4CN(C4CCC(=O)NC4=O)C5=O)CC3)ncc2Cl)c1CC1CC1 (stereo partly drawn) | > 90%
CN(CCNCC(=O)NCc1scc2c1CN(C1CCC(=O)NC1=O)C2=O)CCNC(=O)CN1CCC(C(=O)Nc2ncc(SCc3ncc(C(C)(C)C)o3)s2)CC1 (stereo not drawn) | 50 to 70%

Lab note: CC(C)(C)c1cnc(CSc2cnc(NC(=O)C3CCN(CC(=O)NCCOCCNC(=O)NCc4scc5c4CN(C4CCC(=O)NC4=O)C5=O)CC3)s2)o1 (stereo not drawn) gave inhibition at 1 µM of 70 to 90%

Lab note: CC(C)(C)c1cnc(CSc2cnc(NC(=O)C3CCN(CC(=O)NCCCCCCCNC(=O)NCc4cc5c(s4)C(=O)N(C4CCC(=O)NC4=O)C5)CC3)s2)o1 (stereo not drawn) gave inhibition at 1 µM of 70 to 90%

Lab note: CC(C)(C)c1cnc(CSc2cnc(NC(=O)C3CCN(CCCCCCCNCC(=O)NCc4cc5c(s4)C(=O)N(C4CCC(=O)NC4=O)C5)CC3)s2)o1 (stereo not drawn) gave inhibition at 1 µM of > 90%

----------
target: CDK9 (Homo sapiens); construct: Whole cell extracts were prepared using RIPA buffer; endogenous in cells; host or cells: MV-4-11; assay: CDK9 degradation assay (Western blot, MV-4-11 cells); assay type: cell-based; settings: MV4-11, 1 μM, 6-8 h
Sequence (P50750 whole entry): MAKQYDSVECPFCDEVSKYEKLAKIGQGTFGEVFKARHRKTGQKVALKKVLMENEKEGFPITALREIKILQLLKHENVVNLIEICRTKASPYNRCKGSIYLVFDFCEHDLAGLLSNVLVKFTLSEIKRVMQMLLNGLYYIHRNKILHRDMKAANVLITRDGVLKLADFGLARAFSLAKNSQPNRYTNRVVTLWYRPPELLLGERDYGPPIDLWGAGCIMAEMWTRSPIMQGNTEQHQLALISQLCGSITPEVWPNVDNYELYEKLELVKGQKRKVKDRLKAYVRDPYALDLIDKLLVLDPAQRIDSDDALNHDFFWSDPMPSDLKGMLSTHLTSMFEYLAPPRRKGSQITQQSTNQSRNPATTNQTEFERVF
Observed Property: Dmax at 1 µM

Examples from the recorded data:
Molecule | Dmax at 1 µM
Cn1ncc(-c2nc(N[C@H]3CC[C@H](NCC(=O)NCCCCNCC(=O)NCc4cc5c(s4)C(=O)N(C4CCC(=O)NC4=O)C5)CC3)ncc2Cl)c1CC1CC1 (some centres unmarked) [Compound 35] | 25 to 50%
CC(C)(C)c1cnc(CSc2cnc(NC(=O)C3CCN(CC(=O)NCCOCCOCCNCC(=O)NCc4cc5c(s4)C(=O)N(C4CCC(=O)NC4=O)C5)CC3)s2)o1 (centres unmarked) [Compound 34] | ≥ 75%
Cn1ncc(-c2nc(N[C@H]3CC[C@H](NCCCCCCCCNC(=O)NCc4cc5c(s4)C(=O)N(C4CCC(=O)NC4=O)C5)CC3)ncc2Cl)c1CC1CC1 (some centres unmarked) [Compound 22] | ≥ 75%
CC(C)(C)c1cnc(CSc2cnc(NC(=O)C3CCN(CC(=O)NCCCNC(=O)NCc4cc5c(s4)C(=O)N(C4CCC(=O)NC4=O)C5)CC3)s2)o1 (centres unmarked) [Compound 12] | ≥ 75%

# context switch: different molecule, same Dmax at 1 µM
Lab note: Cn1ncc(-c2nc(N[C@H]3CC[C@H](NCCCCCCNC(=O)NCc4cc5c(s4)C(=O)N(C4CCC(=O)NC4=O)C5)CC3)ncc2Cl)c1CC1CC1 (some centres unmarked) [Compound 24] gave Dmax at 1 µM of ≥ 75%
